- Target or test system: PKC alpha kinase (Homo sapiens, UniProt P17252)
- Assay explanation: PKC alpha kinase inhibition, coupled-enzyme NADH absorbance assay (Ki)
- Format: biochemical
- Condition parameters: 130 μM ATP, 4.5 nM PKC alpha, 30° C.; read-out: Ki PKC alpha
Listing of entries alongside the reported Ki.
Observation type: Ki

compound=CCCc1cc(-c2ccnc3[nH]ncc23)cc(C2(CC#N)CCC2)c1 test_result="> 1200 nM"
compound="CCC(C)(CN)c1cc(CCCF)cc(-c2ccnc3[nH]ncc23)c1 (stereo not shown)" test_result="< 500 nM"
compound="Cc1cc(-c2ccnc3[nH]ncc23)cc(C(N)C2CC2(F)F)c1 (stereo not shown)" test_result="< 500 nM"
compound=N#CC1(c2cc(CCCO)cc(-c3ccnc4[nH]nc(C(F)(F)F)c34)c2)CC1 test_result="< 500 nM"
compound="CC(CN)(Cc1ccccn1)c1cccc(-c2ccnc3[nH]ncc23)c1 (stereo not shown)" test_result="> 1200 nM"
compound="CC(C#N)(CC(F)F)c1cccc(-c2ccnc3[nH]ncc23)c1 (stereo not shown)" test_result="< 2800 nM"
compound=NCC1(c2cccc(-c3ccnc4[nH]ncc34)c2)CCCCC1 test_result="< 2800 nM"
compound="N#CCC1(c2cccc(-c3ccnc4[nH]ncc34)c2)CCNC1 (stereo not shown)" test_result="< 500 nM"
compound=NC[C@]1(c2cccc(-c3ccnc4[nH]ncc34)c2)CC[C@@H](O)CC1 test_result="> 1200 nM"
compound="C#CCC(C)(C#N)c1cccc(-c2ccnc3[nH]ncc23)c1 (stereo not shown)" test_result="< 500 nM"
compound=NCC1(c2cc(N)cc(-c3ccnc4[nH]ncc34)c2)CCC1 test_result="> 1200 nM"
compound="CCC(C)(CN)c1cc(Cl)cc(-c2ccnc3[nH]ncc23)c1 (stereo not shown)" test_result="< 500 nM"
compound=N#CC1(c2cccc(-c3ccnc4[nH]nc(Cl)c34)c2)CCC1 test_result="< 500 nM"
compound=N#CC1(c2cc(CC(N)=O)cc(-c3ccnc4[nH]nc(C(F)(F)F)c34)c2)CC1 test_result="> 1200 nM"
compound="N#CC(CCN)c1cccc(-c2ccnc3[nH]ncc23)c1 (stereo not shown)" test_result="< 2800 nM"
compound=NCC1(c2cccc(-c3ccnc4[nH]ncc34)c2)CCC(F)(F)CC1 test_result="< 2800 nM"
compound="CCC(N)c1cccc(-c2ccnc3[nH]ncc23)c1 (stereo not shown)" test_result="> 1200 nM"
compound="CC(C)C(C)(CN)c1cccc(-c2ccnc3[nH]ncc23)c1 (stereo not shown)" test_result="< 500 nM"
compound=CC[C@](C)(CN)c1cccc(-c2ccnc3[nH]ncc23)c1 test_result="< 500 nM"
compound="C=CCC(C)(CN)c1cccc(-c2ccnc3[nH]ncc23)c1 (stereo not shown)" test_result="< 500 nM"
compound="NC(CCC1CCCCC1)c1cccc(-c2ccnc3[nH]ncc23)c1 (stereo not shown)" test_result="> 1200 nM"
compound="CC1(c2cccc(-c3ccnc4[nH]ncc34)c2)CCNC1 (stereo not shown)" test_result="< 2800 nM"
compound=NCC1(c2cccc(-c3ccnc4[nH]nc(Cl)c34)c2)CCC1 test_result="< 500 nM"
compound="CCC(C)(CN)c1cc(-c2ccnc3[nH]ncc23)cc(C(F)(F)CCC2CCCCC2)c1 (stereo not shown)" test_result="> 1200 nM"
compound="C/C=C\\c1cc(-c2ccnc3[nH]ncc23)cc(C(C)(CC)CN)c1 (stereo not shown)" test_result="< 2800 nM"
compound=C#Cc1cc(-c2ccnc3[nH]ncc23)cc(C(C)(C)CN)c1 test_result="< 2800 nM"
compound=Cc1cnc2[nH]ncc2c1-c1cccc(C(C)(C)C#N)c1 test_result="> 1200 nM"
compound="CCC(C)(C#N)c1cc(-c2ccnc3[nH]ncc23)cc(C(C)F)c1 (stereo not shown)" test_result="< 2800 nM"
compound="CCC(C)(CO)c1cc(C)cc(-c2ccnc3[nH]ncc23)c1 (stereo not shown)" test_result="< 500 nM"
compound=CCCc1cc(-c2ccnc3[nH]ncc23)cc(C(C)(C)C#N)c1 test_result="< 2800 nM"
compound="CCC(F)(CN)c1cc(C)cc(-c2ccnc3[nH]nc(C(F)(F)F)c23)c1 (stereo not shown)" test_result="< 500 nM"
compound="CCC(C)(C#N)c1cc(C=O)cc(-c2ccnc3[nH]ncc23)c1 (stereo not shown)" test_result="> 1200 nM"
compound="CCC1(c2cccc(-c3ccnc4[nH]ncc34)c2)CCNC1 (stereo not shown)" test_result="< 500 nM"
compound=FC(F)CC1(c2cccc(-c3ccnc4[nH]ncc34)c2)CNC1 test_result="< 500 nM"
compound="C=CCC1(c2cc(C)cc(-c3ccnc4[nH]ncc34)c2)CN(C)C(=O)O1 (stereo not shown)" test_result="> 1200 nM"
compound="CCC(C)(CN)c1cc(CCC(F)F)cc(-c2ccnc3[nH]ncc23)c1 (stereo not shown)" test_result="< 2800 nM"
compound=COc1cc(-c2ccnc3[nH]ncc23)cc(C(C)(C)CN)c1 test_result="< 2800 nM"

====

- Target or test system: PKC theta kinase (Homo sapiens)
- Sequence (Q04759 whole entry): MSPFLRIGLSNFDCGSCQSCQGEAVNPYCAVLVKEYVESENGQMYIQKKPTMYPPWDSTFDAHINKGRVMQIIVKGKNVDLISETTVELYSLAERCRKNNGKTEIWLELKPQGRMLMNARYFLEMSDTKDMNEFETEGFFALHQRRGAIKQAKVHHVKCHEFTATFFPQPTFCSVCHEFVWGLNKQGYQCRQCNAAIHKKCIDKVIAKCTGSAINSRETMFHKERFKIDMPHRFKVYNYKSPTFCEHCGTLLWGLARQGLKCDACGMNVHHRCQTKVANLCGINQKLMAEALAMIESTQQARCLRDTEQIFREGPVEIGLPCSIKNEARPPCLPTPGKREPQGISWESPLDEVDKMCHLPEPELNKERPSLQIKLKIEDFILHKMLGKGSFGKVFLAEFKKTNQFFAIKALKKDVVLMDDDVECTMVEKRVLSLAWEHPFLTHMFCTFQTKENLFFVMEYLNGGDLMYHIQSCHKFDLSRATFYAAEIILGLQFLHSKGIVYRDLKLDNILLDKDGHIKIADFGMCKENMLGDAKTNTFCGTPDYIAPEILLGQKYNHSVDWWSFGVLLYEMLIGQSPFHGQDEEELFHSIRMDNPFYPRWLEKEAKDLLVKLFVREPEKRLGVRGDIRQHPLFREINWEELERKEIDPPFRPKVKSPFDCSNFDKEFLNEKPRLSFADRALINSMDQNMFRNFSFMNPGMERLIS
- Assay explanation: PKC theta kinase inhibition, coupled-enzyme NADH absorbance assay (Ki)
- Type: biochemical
- Condition parameters: 240 μM ATP, 18 nM PKC theta, 30° C.; read-out: Ki PKC theta
Listing of entries alongside the reported Ki.
Observation type: Ki

molecule="CCC(C)(CN)c1cc(CC(F)(F)F)cc(-c2ccnc3[nH]ncc23)c1 (stereo not drawn)" target_or_test_system="PKC theta kinase (Homo sapiens)" test_result="< 500 nM"
molecule=CC(C)(C#N)c1cc(-c2ccnc3n[nH]cc23)ccc1Br target_or_test_system="PKC theta kinase (Homo sapiens)" test_result="< 2800 nM"
molecule=N#CC1(c2cc(-c3ccnc4[nH]ncc34)cc(C(F)(F)CN)c2)CC1 target_or_test_system="PKC theta kinase (Homo sapiens)" test_result="< 50 nM"
molecule=CC(C)(C#N)c1cc(-c2ccnc3[nH]ncc23)cc(N2CCCCC2)c1 target_or_test_system="PKC theta kinase (Homo sapiens)" test_result="< 2800 nM"
molecule=CC(C)(O)C#Cc1cc(-c2ccnc3[nH]nc(C(F)(F)F)c23)cc(C2(C#N)CC2)c1 target_or_test_system="PKC theta kinase (Homo sapiens)" test_result="< 2800 nM"
molecule=CCc1n[nH]c2nccc(-c3cccc(C4(CN)COC4)c3)c12 target_or_test_system="PKC theta kinase (Homo sapiens)" test_result="< 50 nM"
molecule="C/C=C\\c1cc(-c2ccnc3[nH]ncc23)cc(C(C)(C#N)CC)c1 (stereo not drawn)" target_or_test_system="PKC theta kinase (Homo sapiens)" test_result="< 500 nM"
molecule="CC(CN)(CC1CCOCC1)c1cccc(-c2ccnc3[nH]ncc23)c1 (stereo not drawn)" target_or_test_system="PKC theta kinase (Homo sapiens)" test_result="< 50 nM"
molecule="CC(C)=CC1(c2cccc(-c3ccnc4[nH]ncc34)c2)CCNC1 (stereo not drawn)" target_or_test_system="PKC theta kinase (Homo sapiens)" test_result="< 50 nM"

====

- Target or test system: PKC delta kinase (Homo sapiens)
- Sequence (Q05655 whole entry): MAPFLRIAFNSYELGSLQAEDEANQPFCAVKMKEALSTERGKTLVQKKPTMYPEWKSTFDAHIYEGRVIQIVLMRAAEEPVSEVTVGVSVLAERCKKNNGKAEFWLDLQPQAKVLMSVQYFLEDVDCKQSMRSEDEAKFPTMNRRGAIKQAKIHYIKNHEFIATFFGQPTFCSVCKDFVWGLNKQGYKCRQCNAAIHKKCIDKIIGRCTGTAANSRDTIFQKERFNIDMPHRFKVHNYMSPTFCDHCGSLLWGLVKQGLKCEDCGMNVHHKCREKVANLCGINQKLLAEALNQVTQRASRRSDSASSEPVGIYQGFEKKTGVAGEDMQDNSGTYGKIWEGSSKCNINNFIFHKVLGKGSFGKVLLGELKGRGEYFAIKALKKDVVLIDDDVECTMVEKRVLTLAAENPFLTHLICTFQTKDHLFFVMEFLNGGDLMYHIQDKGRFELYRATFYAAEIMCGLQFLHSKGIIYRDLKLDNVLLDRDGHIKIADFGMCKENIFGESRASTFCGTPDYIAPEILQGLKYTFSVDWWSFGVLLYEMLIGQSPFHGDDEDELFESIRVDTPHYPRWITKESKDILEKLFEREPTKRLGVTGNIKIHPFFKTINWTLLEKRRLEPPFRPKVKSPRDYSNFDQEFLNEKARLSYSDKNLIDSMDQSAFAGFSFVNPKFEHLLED
- Assay explanation: PKC delta kinase inhibition, coupled-enzyme NADH absorbance assay (Ki)
- Format: biochemical
pKi: −log10 of the molar value.
Observation type: pKi

sample_smiles=NCCc1cc(Br)cc(-c2ccnc3[nH]ncc23)c1 test_result="> 5.55"

====

- Target or test system: PKC delta kinase (Homo sapiens)
- Assay explanation: PKC delta kinase inhibition, coupled-enzyme NADH absorbance assay (Ki)
- Format: biochemical
- Condition parameters: 150 μM ATP, 46 nM PKC delta, 30° C.; read-out: Ki PKC delta
Observation type: Ki

molecule=CC(C)(C#N)c1cccc(-c2ccnc3[nH]ncc23)c1 test_result="< 2800 nM"
molecule=COc1ccc(C2(C#N)CCC2)cc1-c1ccnc2[nH]ncc12 test_result="> 2000 nM"
molecule=CC#CC[C@](C)(CN)c1cccc(-c2ccnc3[nH]ncc23)c1 test_result="< 50 nM"
molecule=C=CCc1cc(-c2ccnc3[nH]ncc23)cc(C(C)(C)C#N)c1 test_result="> 2800 nM"
molecule=COc1cc(-c2ccnc3[nH]ncc23)cc(C(C)(C)CN)c1 test_result="< 2800 nM"
molecule=NCC1(c2cc(F)cc(-c3ccnc4[nH]nc(Br)c34)c2)CCC1 test_result="< 50 nM"
molecule=NC[C@]1(c2cccc(-c3ccnc4[nH]ncc34)c2)CC[C@@H](O)CC1 test_result="< 2800 nM"
molecule="CCC(C)(C#N)c1cc(CO)cc(-c2ccnc3[nH]ncc23)c1 (stereo not drawn)" test_result="> 2000 nM"
molecule="CCC(F)c1cc(-c2ccnc3[nH]ncc23)cc(C(C)(CC)CN)c1 (stereo not drawn)" test_result="> 2000 nM"
molecule="CCC(F)(CN)c1cc(C)cc(-c2ccnc3[nH]ncc23)c1 (stereo not drawn)" test_result="< 2800 nM"
molecule=NCc1cccc(-c2ccnc3[nH]nc(C4CC4)c23)c1 test_result="> 1200 nM"
molecule="CCC(C)(CC#N)c1cc(-c2ccnc3[nH]ncc23)cc(C(F)(F)CCC2CCCC2)c1 (stereo not drawn)" test_result="> 2000 nM"
molecule="CCC(C)(CN)c1cc(-c2ccnc3[nH]ncc23)cc(C(C)(F)F)c1 (stereo not drawn)" test_result="< 500 nM"
molecule=FC(F)CC1(c2cccc(-c3ccnc4[nH]ncc34)c2)CNC1 test_result="< 500 nM"
molecule=N#CC1(c2cc(-c3ccnc4[nH]ncc34)cc(C(F)(F)C3CNC3)c2)CC1 test_result="< 2800 nM"
molecule=CC(C)(CN)c1cccc(-c2ccnc3[nH]ncc23)c1 test_result="< 500 nM"
molecule="CC(C)C(O)c1cc(-c2ccnc3[nH]ncc23)cc(C(C)(C)C#N)c1 (stereo not drawn)" test_result="> 2800 nM"
molecule="CC(F)c1cc(-c2ccnc3[nH]ncc23)cc(C(C)(C)CN)c1 (stereo not drawn)" test_result="< 2800 nM"
